- TESTED_TARGET: hemagglutinin (HA) of influenza virus H1N1 A/New Caledonia/20/99 (influenza A virus)
- EXPERIMENT: cell-based or functional assay
RECORDED_ENDPOINT: average neutralization titer (nM)
Give a bare numeral; the unit nM is implied.

MD2304 (bispecific antibody) EVQLVESGGGLVQPGGSLRLSCAATGFTLENKAIGWFRQTPGSEREGVLCISKSGSWTYYTDSMRGRFTISRDNAENTVYLQMDSLKPEDTAVYYCATTTAGGGLCWDGTTFSRLASSWGQGTQVTVSSGGGGSGGGGSEVQLVESGGGLVQPGGSLRLSCAVSISIFDIYAMDWYRQAPGKQRDLVATSFRDGSTNYADSVKGRFTISRDNAKNTLYLQMNSLKPEDTAVYLCHVSLYRDPLGVAGGMGVYWGKGALVTVSSGGGGSGGGGSEVQLVESGGGLVQPGGSLRLSCAVSISIFDIYAMDWYRQAPGKQRDLVATSFRDGSTNYADSVKGRFTISRDNAKNTLYLQMNSLKPEDTAVYLCHVSLYRDPLGVAGGMGVYWGKGALVTVSS = 20.6

Prompt: Please report the recorded average neutralization titer for MD2306 (bispecific antibody) EVQLVESGGGLVQPGGSLRLSCAVSISIFDIYAMDWYRQAPGKQRDLVATSFRDGSTNYADSVKGRFTISRDNAKNTLYLQMNSLKPEDTAVYLCHVSLYRDPLGVAGGMGVYWGKGALVTVSSGGGGSGGGGSEVQLVESGGGLVQPGGSLRLSCAVSISIFDIYAMDWYRQAPGKQRDLVATSFRDGSTNYADSVKGRFTISRDNAKNTLYLQMNSLKPEDTAVYLCHVSLYRDPLGVAGGMGVYWGKGALVTVSSGGGGSGGGGSEVQLVESGGGLVQPGGSLRLSCAATGFTLENKAIGWFRQTPGSEREGVLCISKSGSWTYYTDSMRGRFTISRDNAENTVYLQMDSLKPEDTAVYYCATTTAGGGLCWDGTTFSRLASSWGQGTQVTVSS .
Response: 6.1
